Give IC50 for every item shown.
Experiment: Inhibitory activity against LPS-stimulated B cell proliferation.
Assay type: functional, cell-based, Mus musculus
Numbers only, in µg/mL.

molecule="Cc1cc(C(=O)N[C@@H](CC(F)C(=O)O)C(=O)O)ccc1NCc1cnc2nc(N)nc(N)c2n1 (stereo in doubt; form 1)" testvalue=0.0099

Value sought for every listed molecule: IC50.
1. Nc1nc(N)c2nc(CNc3ccc(C(=O)N[C@@H](CC(F)C(=O)O)C(=O)O)cc3Cl)cnc2n1 (some centres undefined)
2. Nc1nc(N)c2nc(CNc3ccc(C(=O)N[C@@H](CC(F)C(=O)O)C(=O)O)cc3F)cnc2n1 (some centres undefined)
3. CCc1cc(C(=O)N[C@@H](CC(F)C(=O)O)C(=O)O)ccc1NCc1cnc2nc(N)nc(N)c2n1 (stereo in doubt; form 2)

1. 0.0118
2. 0.0227
3. 0.0092
